Each entry below carries its reported ELISA OD of antibodies to be tested (20 nM).
Target: T1, human TNFR2 (Novoprotein, Catalog No. C830) (human, UniProt P20333 23-257, limits assumed)
T1 construct: construct not described; also called TNFR2 protein
T1 sequence (looked up): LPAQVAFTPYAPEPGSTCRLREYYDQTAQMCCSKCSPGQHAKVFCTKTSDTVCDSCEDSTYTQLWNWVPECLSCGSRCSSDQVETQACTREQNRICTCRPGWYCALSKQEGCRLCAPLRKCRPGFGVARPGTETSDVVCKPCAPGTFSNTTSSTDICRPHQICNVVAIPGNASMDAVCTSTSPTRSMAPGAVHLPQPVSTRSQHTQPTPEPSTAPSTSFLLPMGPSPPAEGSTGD
Assay: blocking ELISA, TNFα-biotin on coated human TNFR2, antibody 20 nM
ASSAY METRIC: ELISA OD of antibodies to be tested (20 nM) (OD)

1) TNFR2 antibody #395 (antibody, V domains shown) VH: EVQLQESGPVLVQPSQSLSITCTVSGFSLTSYSVHWVRQSPGKGLEWLGVIWSDGGTDYSAAFISRLSISKDNSKSQVFFKMNSLQADDTAIYYCARNDDGGDYAMDYWGQGTTVTVSS VL: EIVLTQSPALMSASPGEKVTMTCSASSSVSYMYWYQQKPRSSPKPWIYLTSNLASGVPARFSGSGSGTSYSLTISSMEAEDAATYYCQQWSSNPLTFGAGTKLEIK ... 0.282
2) TNFR2 antibody #001 (antibody, V domains shown, also called antibody #1) VH: EVQLQESGGGLVQPGGSLNLSCAASGFAFSTYDLSWVRQTPEKRLEWVAYINNGGISTYYSDTVKGRFTISRDNAKNTLYLQMSSLKSEDTAMYYCVRGPFYGSANYFDYWGQGTTVTVSS VL: EIVMTQSPASLSLSVGETVTITCRTSESIYSNLPWYQQKQGKSPQLLVYDATKLAEGVPSRFSGSESGTQYSLKINSLQSEDFGTYYCQHFWVTPWTFGGGTKLEIK ... 0.198
3) TNFR2 antibody #133 (antibody, V domains shown) VH: EVQLQESGAELVRSGASVKLSCTASGFNIKDYYIQWVKQRPEQGLEWIGWIDPESGNTKYAPKFQDKATMTADTSSNTAYLQLSGLTSEDSAVYYCNAYYDYDGSMDYWGQGTTVTVSS VL: DIVMTQSPLSLPVSLGDQASISCRSSQSLVHSNGNTYLHWYLQKPGQSPKLLIYKVSNRFSGVPDRFSGSGSGTDFTLKISRVETDDLGVYFCSQSTHVPTWTFGGGTKLEIK ... 0.454
4) TNFR2 antibody #226 (antibody, V domains shown) VH: EVQLQESGAELVRPGASVKLSCKASGYSFTNYWMNWVKQRPGQGLEWIGMIHPSDSETRLNQKFKDKATLTVDKSSSTAYMQLSSPTSEDSAVYYCARGEGLGAARSVSMDYWGQGTTVTVSS VL: DIQMTQSPSSLSASLGDRVTISCRASQDISNYLNWYQQKPDGTVKVLIYYTALLHSGVPSRFSGSGSGTDYSLTISNLEQEDIATYFCQQGNTLPWTFGGGTKLEIK ... 0.237
5) TNFR2 antibody #088 (antibody, V domains shown) VH: EVQLQESGGGLVQPGGSLNLSCAASGFAFSTYDLSWVRQTPGKRLEWVAYINNGGISTYYSDTVKGRFTITRDNAKNTLYLQMSSLKSEDTAMYYCVRGPFYGSANYFDYWGQGTTVTVSS VL: DILMTQSPASLSLFVGETVTITCRASENIYSNLAWYQQKQGKSPQLLVYDATKLAEGVPSRFSGSESGTQYSLKINSLQSEDFGTYYCQHFWVTPWTFGGGTKLEIK ... 0.35
